Target Or System: CYP2C19 (Homo sapiens, UniProt P33261)
Construct: purchased BD Biosciences
Sequence (P33261 whole entry): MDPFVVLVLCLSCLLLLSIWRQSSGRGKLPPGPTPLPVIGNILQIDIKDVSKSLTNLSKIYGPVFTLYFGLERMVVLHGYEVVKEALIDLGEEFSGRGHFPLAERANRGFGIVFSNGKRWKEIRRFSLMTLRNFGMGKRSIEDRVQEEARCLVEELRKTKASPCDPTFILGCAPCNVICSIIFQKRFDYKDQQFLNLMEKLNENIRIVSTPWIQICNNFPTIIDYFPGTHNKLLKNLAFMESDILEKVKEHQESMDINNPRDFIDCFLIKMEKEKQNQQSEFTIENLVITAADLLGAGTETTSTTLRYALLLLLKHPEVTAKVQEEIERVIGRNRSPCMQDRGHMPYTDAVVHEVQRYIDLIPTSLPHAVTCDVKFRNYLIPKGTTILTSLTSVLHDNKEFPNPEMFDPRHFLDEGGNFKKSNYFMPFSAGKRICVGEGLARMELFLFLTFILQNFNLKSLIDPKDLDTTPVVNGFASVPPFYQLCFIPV
Experimental Protocol: Inhibition of CYP2C19
Type: in vitro ADME
Experimental Parameters: CYP450 isoform inhibition kit (BD Biosciences), probe CEC
Below, each of the compounds is paired with its reported inhibition at 10 µM value.

Item Smiles: CN(C)CCn1ccc2c(ccn2Cc2ccc(Cl)c(Br)c2)c1=O
Units: %
inhibition at 10 µM: 45
--
Item Smiles: CN(C)CCn1ccc2c(ccn2Cc2ccc(Cl)c(Cl)c2)c1=O
Units: %
inhibition at 10 µM: 64

###

Experimental Protocol: Mouse brain tissue binding
Format: in vitro ADME
Experimental Parameters: read-out: Mouse brain tissue binding fu (%)

Item Smiles: CN(C)CCn1ccc2c(ccn2Cc2ccc(F)c(Br)c2)c1=O
fraction unbound: 0.017
//
Item Smiles: CN(C)CCn1ccc2c(ccn2Cc2ccc(Cl)c(Cl)c2)c1=O
fraction unbound: 0.008
//
Item Smiles: CN(C)CCn1ccc2c(ccn2Cc2ccc(Cl)c(Br)c2)c1=O
fraction unbound: 0.006

###

System: T. b. brucei GVR35-Luc2
Experimental Protocol: T. b. brucei GVR35-Luc2 time-to-kill assay (luciferin)
Type: cell-based
Experimental Parameters: GVR35 TTK, 24 h incubation; average
Below, each of the compounds is paired with its reported % Cell viability, Average value.
Experimental Endpoint: % Cell viability, Average

Item Smiles: CSc1ccc(OCc2ncc([N+](=O)[O-])n2C)cc1
Target Or System: T. b. brucei GVR35-Luc2
Readout Value: 18%
--
Item Smiles: CN(C)CCn1ccc2c(ccn2Cc2ccc(Cl)c(Cl)c2)c1=O
Target Or System: T. b. brucei GVR35-Luc2
Readout Value: -0.0941%
--
Item Smiles: CNCCn1ccc2c(ccn2Cc2ccc(Cl)c(Cl)c2)c1=O
Target Or System: T. b. brucei GVR35-Luc2
Readout Value: -0.136%
--
Item Smiles: Cc1ccc(C(=O)Nc2ccc(S(=O)(=O)O)c3cc(S(=O)(=O)O)cc(S(=O)(=O)O)c23)cc1NC(=O)c1cccc(NC(=O)Nc2cccc(C(=O)Nc3cc(C(=O)Nc4ccc(S(=O)(=O)O)c5cc(S(=O)(=O)O)cc(S(=O)(=O)O)c45)ccc3C)c2)c1
Target Or System: T. b. brucei GVR35-Luc2
Readout Value: 1.08%
--
Item Smiles: CC1(C)OB(O)c2cc(NC(=O)c3ccc(F)cc3C(F)(F)F)ccc21
Target Or System: T. b. brucei GVR35-Luc2
Readout Value: -0.0868%

###

Experimental Protocol: Brain and plasma concentrations in mice after oral dose
Type: in vivo
Experimental Parameters: female, CD-1, mouse, plasma; single oral dose of 50 mg kg^−1, 2 h; read-out: mean plasma concentration
Experimental Endpoint: concentration at 2 h

Item Smiles: CN(C)CCn1ccc2c(ccn2Cc2ccc(Cl)c(Cl)c2)c1=O
Experimental Endpoint: concentration at 2 h
Readout Value: 366 ng/mL

###

Target Or System: T. brucei phosphofructokinase (TbPFK) (Trypanosoma brucei brucei)
Construct: made in house; host or cells: Escherichia coli C41 (pET28a, codon optimised gene)
Sequence (O15648 1-487): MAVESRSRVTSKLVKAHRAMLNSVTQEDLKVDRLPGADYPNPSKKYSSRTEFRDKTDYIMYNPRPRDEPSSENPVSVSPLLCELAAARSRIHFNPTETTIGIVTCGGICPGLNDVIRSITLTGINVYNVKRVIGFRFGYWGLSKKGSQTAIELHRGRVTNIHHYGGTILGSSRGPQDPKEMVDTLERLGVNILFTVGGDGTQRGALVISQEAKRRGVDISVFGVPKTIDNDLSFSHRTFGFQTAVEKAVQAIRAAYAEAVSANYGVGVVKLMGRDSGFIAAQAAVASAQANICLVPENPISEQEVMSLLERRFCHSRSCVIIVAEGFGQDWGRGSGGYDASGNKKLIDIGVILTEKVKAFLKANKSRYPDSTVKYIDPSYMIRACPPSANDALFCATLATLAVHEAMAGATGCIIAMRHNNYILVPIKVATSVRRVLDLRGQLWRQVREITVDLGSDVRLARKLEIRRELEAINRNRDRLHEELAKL
Experimental Protocol: ADP-Glo assay for measuring PFK inhibition
Format: biochemical
Experimental Parameters: IC50 (µM), single dated measurement, source data
Experimental Endpoint: IC50 (µM)

Compound: Clc1ccc(Cn2ccnc2)cc1Cl [CTCB-12]
Target Or System: T. brucei phosphofructokinase (TbPFK) (Trypanosoma brucei brucei)
Experimental Endpoint: IC50
Readout Value: 0.83
